# Tested on: S. pneumoniae strain Taiwan-19F (19F)
# Method Description: Determination of relative minimal inhibitory concentration (MIC)
# Type: cell-based, Streptococcus pneumoniae
# Measurement Context: Streptococcus pneumoniae, 16 h, read-out: 1x MIC for 19F
Recorded MIC, one value per entry.
Endpoint Name: MIC (µg/mL)

Smiles Input: CCCCCCCCCC(=O)N[C@@H](Cc1c[nH]c2ccccc12)C(=O)N[C@H](CC(N)=O)C(=O)N[C@@H](CC(=O)O)C(=O)N[C@@H]1C(=O)NCC(=O)N[C@@H](CCCN)C(=O)N[C@@H](CC(=O)O)C(=O)N[C@H](C)C(=O)N[C@@H](CC(=O)O)C(=O)NCC(=O)N[C@H](CO)C(=O)N[C@@H]([C@H](C)CC(=O)O)C(=O)N[C@@H](CC(=O)c2ccccc2N)C(=O)O[C@@H]1C
Endpoint Name: MIC
Reported Result: 35
//
Smiles Input: CO[C@H]1/C=C/O[C@@]2(C)Oc3c(C)c(O)c4c(O)c(c(/C=N/N5CCN(C)CC5)c(O)c4c3C2=O)NC(=O)/C(C)=C\C=C\[C@H](C)[C@H](O)[C@@H](C)[C@@H](O)[C@@H](C)[C@H](OC(C)=O)[C@@H]1C
Endpoint Name: MIC
Reported Result: 0.035
//
Smiles Input: NC[C@H]1O[C@H](O[C@H]2[C@H](O)[C@@H](O[C@H]3O[C@H](CO)[C@@H](O)[C@H](N)[C@H]3O)[C@H](N)C[C@@H]2N)[C@H](O)[C@@H](O)[C@@H]1O
Endpoint Name: MIC
Reported Result: 90
//
Smiles Input: CN(C)[C@@H]1C(O)=C(C(N)=O)C(=O)[C@@]2(O)C(O)=C3C(=O)c4c(O)cccc4[C@@](C)(O)[C@H]3C[C@@H]12
Endpoint Name: MIC
Reported Result: 22
